target: human CD33 variant I47W (human, UniProt P20138 18-364); assay: flow cytometry, IgG on cells expressing the mutant
Sequence (P20138 18-364 I47W limits assumed): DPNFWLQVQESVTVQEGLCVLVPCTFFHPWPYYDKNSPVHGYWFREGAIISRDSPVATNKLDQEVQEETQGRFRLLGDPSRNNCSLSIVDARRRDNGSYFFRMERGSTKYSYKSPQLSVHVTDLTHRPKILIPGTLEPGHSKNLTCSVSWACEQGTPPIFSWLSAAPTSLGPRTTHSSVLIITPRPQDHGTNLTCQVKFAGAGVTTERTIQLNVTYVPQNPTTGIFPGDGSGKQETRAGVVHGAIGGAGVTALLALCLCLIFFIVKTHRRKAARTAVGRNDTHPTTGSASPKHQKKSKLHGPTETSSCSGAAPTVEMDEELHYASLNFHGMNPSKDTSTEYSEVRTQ
Quantity measured: Mean % WT Binding

Q: Would you kindly share the measured Mean % WT Binding for Refmab #1 (antibody, human IgG1, V domains shown, Tested in IgG format; human IgG1 (Absolute Antibody hP67.6, Cat. No. Ab00283-10.0); also called hP67.6) VH: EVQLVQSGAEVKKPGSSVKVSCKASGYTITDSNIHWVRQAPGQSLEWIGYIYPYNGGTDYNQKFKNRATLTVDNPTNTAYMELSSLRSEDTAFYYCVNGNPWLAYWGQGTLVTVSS VL: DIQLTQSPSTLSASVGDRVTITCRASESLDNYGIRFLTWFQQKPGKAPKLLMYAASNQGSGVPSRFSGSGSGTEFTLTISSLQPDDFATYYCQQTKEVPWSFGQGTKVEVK ?
Result: 111 % of WT
